Cited source for all entries: patent US20240190876A1

Target: pseudo-kinase domain (JH2) of human V617F mutant JAK2 (Homo sapiens, UniProt O60674, F794H/V617F/W659A/W777A)
Construct: pseudo-kinase domain (JH2, amino-acids 536-812 with 3 surface mutations W659A, W777A, F794H); His (C)
Sequence (O60674 536-812 V617F/W659A/W777A/F794H): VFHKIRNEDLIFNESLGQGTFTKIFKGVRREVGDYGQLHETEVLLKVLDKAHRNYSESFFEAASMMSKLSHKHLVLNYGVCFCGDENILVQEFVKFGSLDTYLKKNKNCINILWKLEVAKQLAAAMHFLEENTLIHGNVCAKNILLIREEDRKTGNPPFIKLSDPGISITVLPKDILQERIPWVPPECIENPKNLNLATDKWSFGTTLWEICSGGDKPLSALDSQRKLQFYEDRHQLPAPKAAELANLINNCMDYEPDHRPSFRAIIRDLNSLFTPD
Test: JAK2 LanthaScreen JH2-V617F Binding Assay
Conditions: 50 nM JAK2-JH2 tracer, 1 hour at 25° C., read-out: JH2 V617F Bind IC50
pIC50: −log10 of the molar value.
assay metric: pIC50

INSERT INTO results (mol, assay_metric, result) VALUES
  ('[2H]C([2H])([2H])n1cc(-c2[nH]c3ncc4c(c3c2-c2ccc(OC)cc2)n([C@H]2CC[C@@](C)(NC(=O)[C@H]3C[C@H]3F)CC2)c(=O)n4C([2H])([2H])[2H])c(F)n1', 'pIC50', '≥ 8.00'),
  ('[2H]C([2H])([2H])n1cc(-c2[nH]c3ncc4c(c3c2-c2ccc(OC)cc2)n([C@H]2CC[C@@](C)(NC(=O)C3CC3)CC2)c(=O)n4C)c(F)n1', 'pIC50', '≥ 8.00'),
  ('[2H]C([2H])([2H])n1ncc2cc(-c3c(-c4cn(C)nc4OC)[nH]c4ncc5c(c34)n([C@H]3CC[C@@](C)(NC(=O)C4CC4)CC3)c(=O)n5C)ccc21', 'pIC50', '≥ 8.00');
